Tested on: CCRF-CEM leukemia
Experiment: NCI-60 one-dose screen, 48 h (100 = growth as untreated, 0 = no growth, -100 = all killed)
Settings: 10 µM unless noted
Experimental: Growth inhibition of the CCRF-CEM human tumor cell line is measured as a screen for anti-cancer activity. Cells are grown in 96 well plates and exposed to the test compound for 48 hours. Compounds are tested at a single concentration, which is 10^-5 M for most compounds. The reported endpoint is percent growth (GI% or GIPRCNT), where numbers from 0 - 100% represent growth inhibition, and numbers from -100% - 0 represent cell death. For example, a value of 40 represents 60% growth inhibition. […]
The panel holds about 83,000 compounds, 20% with a hit somewhere; the sample as a whole holds those more often.
Exercise: for every item that follows, state its recorded growth.
Kindly answer with a numeric value in %, unit omitted.

// query Which measured growth value corresponds to O=C1CCC(N2C(=O)c3ccc(NS(=O)(=O)c4ccccc4OC(F)(F)F)cc3C2=O)C(=O)N1 (centres undefined) ?
// result 13.2

// query Using the record for Cc1cc(-c2ccc(Cl)cc2)n(Cc2nnc(SCC(=O)Nc3ccc(S(N)(=O)=O)cc3)n2-c2ccc([N+](=O)[O-])cc2)n1 , report its growth.
// result 79.8

// query # lookup: growth of CCCCNNC(=O)c1ccc(-c2cccc(F)c2F)cc1
// result 27.4

// query Would you mind telling me what growth value was observed for C=C=COc1cccc(/C(N)=N/C(N)=N/c2nc3ccccc3s2)c1 ?
// result 32

// query If you can, please state the reported growth value of COc1ccc2c(c1)Oc1nc(N)c(C#N)c(N)c1C2Sc1ccc(C)cc1 (centres undefined) .
// result -16.1

// query # lookup: growth of Cc1occc1-c1nc2s/c(=C/c3ccc(-c4cc(C(F)(F)F)ccc4Cl)o3)c(=O)n2n1
// result 117

// query I'd like to know its growth. The compound in question is COc1cc2c(cc1OC)C(Sc1ccc(F)cc1)c1c(nc(N)c(C#N)c1N)O2 (centres undefined)
// result -13.6

// query Give the measured growth of COc1cccc2c1CN(C(=O)c1ccc(O)c(C(=O)N3Cc4ccc(OCCC[P+](c5ccccc5)(c5ccccc5)c5ccccc5)cc4C3)c1)C2 .
// result 71.1

// query Please report the recorded growth for Oc1cccc2ccc(-c3nnc(SCc4ccc(O)c5ncccc45)n3-c3ccccc3)nc12 .
// result 11.6

---

test system: M14 melanoma; experiment: NCI-60 one-dose screen, 48 h; details: 10 µM unless noted
This is part of a sample that, as a whole, favours compounds with a hit. Of some 83,000 tested, about 20% had one in any assay. Calls of active or inactive are those of the source. The calls were made as follows: active = growth percent below 10; inactive = the rest.
Log the outcome using a class from yes (1) (active), no (0) (inactive)

// query Assay result, entry CCC(NC(c1cc2cccc3ccc4cccc1c4c32)c1nnnn1C(C)(C)C)C1CCCCC1 (configuration not stated) — outcome?
// result no (0)

// query Tell me the assay call for COc1ccc(/C=C(\C#N)C(=O)N2c3ccccc3Sc3ccc(SC)cc32)cc1F please.
// result no (0)

// query Hi, do you know how CCNC(=O)N1CCc2cc(OC)c(OCCc3ccc(OC)c(N)c3)cc2C1c1ccc(C)cc1C (configuration not stated) came out in this test?
// result no (0)

// query So what was the verdict on O=c1[nH]c2ccccc2cc1CSc1ccccc1Nc1nccc(-c2ccc(Cl)cc2)n1 in this test?
// result no (0)

// query State the result this test recorded for CCNC(=O)N1CCc2cc(OC)c(OCCc3ccc(OC)nc3)cc2C1c1ccc(OC)cc1C (configuration not stated) .
// result no (0)

// query Status in this test for CC1(COc2ccc3ncc(C#Cc4cncc(C(=O)Nc5cccc(C(F)(F)F)c5)c4)n3n2)COC1 ?
// result no (0)

// query Each compound tested received a call. Report the one for O=S(=O)(Nc1cccc2ccccc12)c1ccc(-c2cnc(C3CC3)o2)cc1 .
// result no (0)

// query Kindly provide the recorded test outcome for the following compound: CN(C)CCCOc1ccc2c(c1)CN(C(=O)c1cc(C(=O)N3Cc4cccc(F)c4C3)ccc1O)C2
// result no (0)

// query I would be grateful if you could indicate the recorded call for COc1cc2nc(Cl)nc(Nc3cccc(C4=Nc5c(N)nc(N)nc5NC(c5ccccc5)C4)c3)c2cc1OC (configuration not stated) .
// result no (0)

// query What did the test return for COc1ccc(C(=O)Nc2ncc(Cc3ccccc3Cl)s2)cc1 ?
// result no (0)

// query // return assay outcome for COc1ccc(/C=N/NC2=NC3C(S2)N(C)C(=O)N3C)cc1 (configuration not stated)
// result no (0)

// query Tell me the recorded outcome of this test for Cc1ccc(CSc2nc(-c3ccc(Cl)cc3)c(C#N)c(N3CCOCC3)n2)cc1 .
// result no (0)

// query Query: recorded result category for O=C(Nc1ccc2c(ccn2Cc2ccccn2)c1)c1ccnnc1 in this test
// result no (0)

// query Called result for COc1ccc(CCOc2cc3c(cc2OC)CCN(C(=O)NCc2cocn2)C3c2ccc(C)cc2C)cc1 (configuration not stated)
// result no (0)

// query Which result was noted for this compound in the test: C=C(C=O)[C@@H]1CC[C@]2(CO)CC[C@]3(C)[C@H](CC[C@@H]4[C@@]5(C)CCCNC(C)(C)[C@@H]5CC[C@]43C)[C@@H]12
// result no (0)

// query What did this assay record as the result for CCNC(=O)Oc1ccc(/C(=C(/C)c2ccccc2)c2ccc(OCCN3CCCCCC3)cc2)cc1 ?
// result yes (1)

// query For Nc1nc(Nc2ccccc2SSc2ccccc2Nc2nc(N)nc(-c3cccc(Br)c3)n2)nc(-c2cccc(Br)c2)n1 , which call appears in the assay record?
// result no (0)

// query Answer briefly: the call reported for CCc1cccc2c3c(sc12)C(c1ccc(OC)cc1)C(C#N)=C(/N=C/c1ccc(Cl)cc1)O3 (configuration not stated) in this assay.
// result yes (1)

// query Hello, I am checking results. What call was entered for CNCc1cccc2c1OCCCCCCC(C)(O)CC(C)(C)S(=O)(=O)c1ccc(cc1)-c1cnc(N)c(n1)C(=O)N2 (configuration not stated) ?
// result yes (1)

// query Record lookup: outcome of this test for CC(C)(C)n1cc(-c2ccnc(NCCCNS(=O)(=O)c3cccc(F)c3)n2)c(-c2ccc(Cl)c(O)c2)n1 ?
// result no (0)

// query # lookup: test call for COc1cc2nc(Cl)nc(Nc3cccc(C4=Nc5c(N)nc(N)nc5NC(c5ccc(Cl)cc5)C4)c3)c2cc1OC (configuration not stated)
// result no (0)

// query Assay result, entry CC(C)(C)c1ccc(C(=O)Nc2nc3ccc(O)cc3s2)cc1 — outcome?
// result no (0)

// query Kindly provide the recorded test outcome for the following compound: NS(=O)(=O)c1ccc(Nc2cc(-c3ccccc3)nc(SCC(=O)c3ccccc3)n2)cc1
// result no (0)

// query Hi, sorry to bother you, what did the test record for CCCn1cnc2c(c1=N)C(c1ccc(F)cc1)c1sc3c(C)cccc3c1O2 (configuration not stated) ?
// result yes (1)

// query Status in this test for COc1ccc(CCN2C(=O)CSC2=S)cc1 ?
// result no (0)

// query Hi, sorry to bother you, what did the test record for C=C(C)[C@@H]1CC[C@]2(C(=O)NCCCCCN(CCC#N)CCC#N)CC[C@]3(C)[C@H](CC[C@@H]4[C@@]5(C)CCC(=O)C(C)(C)[C@@H]5CC[C@]43C)[C@@H]12 ?
// result no (0)

// query What did the test return for CC(=O)C1=C(C)NC(NNC(N)=S)=NC1c1ccccc1 (configuration not stated) ?
// result no (0)

// query Lab log entry: C=CCOc1cccc(/C=C2\SC(=S)N(C3CC(=O)N(c4ccc(Br)cc4)C3=O)C2=O)c1 (configuration not stated) — outcome as called in the assay?
// result no (0)

// query Which outcome did this test record for the compound COc1ccc(C2c3sc4c(C)cccc4c3Oc3nc(CC(=O)Nc4ccccc4)[nH]c(=O)c32)cc1 (configuration not stated) ?
// result no (0)

// query Could you please tell me the result logged for Nc1nc(Nc2ccccc2SSc2ccccc2Nc2nc(N)nc(-c3ccc4ccccc4c3)n2)nc(-c2ccc3ccccc3c2)n1 in this assay?
// result no (0)

// query Fill in: this test's call for O=C(CSc1nnc(-c2ccc(Cl)cc2)n1-c1ccccc1)Nc1cccc(Cl)c1 is ___
// result no (0)

// query Answer briefly: the call reported for O=C(Nc1cccc(Cl)c1)Nc1nc2ccc([N+](=O)[O-])cc2o1 in this assay.
// result no (0)

// query I would be grateful if you could indicate the recorded call for N#Cc1c(-c2cccs2)cc(-c2cnccn2)nc1SCC(=O)Nc1ccc(Br)cc1 .
// result no (0)

// query Look up the recorded call for COCCNc1ccc2ncc(C#Cc3cncc(C(=O)Nc4ccc(CN5CCN(C)CC5)c(C(F)(F)F)c4)c3)n2n1 in this test.
// result yes (1)

// query For NC(=O)c1cccc(C#CCNC[C@H]2C[C@@H](n3ccc4c(Cl)ncnc43)[C@H](O)[C@@H]2O)c1 , what call appears in the results of this test?
// result no (0)

// query Could you please tell me the result logged for Nc1cc(-c2c[nH]c3ccc(Br)cc23)nc2cc(-c3c[nH]c4ccc(Br)cc34)nn12 in this assay?
// result yes (1)

// query Which outcome was entered for the compound Cc1ccc(C2=NN(C)C(=O)C3(CCCC3)C2)cc1 in this test?
// result no (0)
